- Study Target: human IKK-2 (rhIKK-2 homodimer) (Homo sapiens, UniProt O14920)
- Construct: FLAG (DYKDDDDKD) (C); made in house; host or cells: insect cells (baculovirus, pFastBac)
- Experimental Protocol: IKK-2 Resin Enzyme Assay (Human IKK-2 Enzyme Assay)
- Assay type: biochemical
- Details: human IKK-2, resin enzyme assay; read-out: IC50 (μM) hIKK-2
Below, each entry is listed with its recorded IC50.
State the answer as a number, implicitly in µM.

Challenge: So what does the record say about IC50 for CC(C#N)Oc1ccc(F)cc1-c1ccc(-n2cc(NC(N)=O)c(C(N)=O)n2)cc1 (centres unmarked) ?
Response given: 0.228

Challenge: Please report the recorded IC50 for `NC(=O)Nc1cn(-c2cccc(-c3cn[nH]c3)c2)nc1C(N)=O` .
Response given: 0.29

Challenge: Param item = `NC(=O)Nc1cn(-c2ccc(S(=O)(=O)c3ccc(F)cc3)cc2F)nc1C(N)=O` ; retrieve measured IC50.
Response given: 0.315

Challenge: Given the compound `CCc1cc(Br)ccc1N/N=C(\C#N)C(N)=O` , what is its reported IC50?
Response given: 7.59

###

- Study Target: human IKK-2 (rhIKK-2 homodimer) (Homo sapiens)
- Construct: FLAG (DYKDDDDKD) (C); made in house; host or cells: insect cells (baculovirus, pFastBac)
- Experimental Protocol: IKK-2 Resin Enzyme Assay (Human IKK-2 Enzyme Assay)
- Format: biochemical
- Details: human IKK-2, resin enzyme assay; read-out: IC50 (μM) hIKK-2
Measure: log10 IC50 (log10 of the value in µM)
Could you please treat all values as log10 of IC50 in µM?

molecule="NC(=O)Nc1cn(-c2ccc(S(=O)(=O)c3ccccn3)cc2)nc1C(N)=O [Example 286]" reported=-0.18
molecule="CNC(=O)c1ccc(-c2cccc(-n3cc(NC(N)=O)c(C(N)=O)n3)c2)cc1 [Example 74]" reported=-0.03
molecule="NC(=O)Nc1cn(-c2ccc(Sc3ccccc3F)c(Cl)c2)nc1C(N)=O [Example 270]" reported=0.57

Challenge: Can you look up the measured log10 IC50 of CNC(=O)c1cccc(-c2cccc(-n3cc(NC(N)=O)c(C(N)=O)n3)c2)c1 [Example 83] for me?
Response given: 0.11

Challenge: Quick one: log10 IC50 of NC(=O)Nc1cn(-c2ccc(Sc3ccc(F)cc3)c(Cl)c2)nc1C(N)=O [Example 221] ?
Response given: 0.41

Challenge: I have this molecule here, NC(=O)Nc1cn(-c2ccc(-c3cc(F)ccc3OCC(=O)N3CCOCC3)cc2)nc1C(N)=O [Example 161] , and I need its recorded log10 IC50.
Response given: 0.13

Challenge: Using the record for N#CCOc1ccccc1-c1ccc(-n2cc(NC(N)=O)c(C(N)=O)n2)cc1C(F)(F)F [Example 238] , report its log10 IC50.
Response given: 0.05

Challenge: I'd like to know its log10 IC50. The molecule in question is CCOc1cc(-n2cc(NC(N)=O)c(C(N)=O)n2)ccc1-c1ccccc1O [Example 232]
Response given: 1.01

###

- Study Target: human IKK-2 (rhIKK-2 homodimer) (Homo sapiens, UniProt O14920)
- Construct: FLAG (DYKDDDDKD) (C); made in house; host or cells: insect cells (baculovirus, pFastBac)
- Experimental Protocol: IKK-2 Resin Enzyme Assay (Human IKK-2 Enzyme Assay)
- Format: biochemical
- Details: human IKK-2, resin enzyme assay; read-out: IC50 (μM) hIKK-2
Measure: IC50

Challenge: Suppose we examine the molecule `NC(=O)Nc1cn(-c2cccc(-c3cccc4ccccc34)c2)nc1C(N)=O` ; what IC50 value has been reported?
Response given: > 20 µM

###

- Study Target: human IKK-2 (rhIKK-2 homodimer) (Homo sapiens, UniProt O14920)
- Construct: FLAG (DYKDDDDKD) (C); made in house; host or cells: insect cells (baculovirus, pFastBac)
- Experimental Protocol: IKK-2 Resin Enzyme Assay (Human IKK-2 Enzyme Assay)
- Format: biochemical
- Details: human IKK-2, resin enzyme assay; read-out: IC50 (μM) hIKK-2
Under this convention, true (1) denotes IC50 strictly below 0.3 µM and false (0) denotes IC50 at or above 0.3 µM.

sample_smiles=CCCCCc1ccc(-c2ccc(-n3cc(C(N)=O)c(NC(N)=O)n3)cc2)cc1 study_target="human IKK-2 (rhIKK-2 homodimer) (Homo sapiens, UniProt O14920)" category_label="false (0)"
sample_smiles=NC(=O)Nc1cn(-c2cccc(-c3ccc(-c4ccccc4)cc3)c2)nc1C(N)=O study_target="human IKK-2 (rhIKK-2 homodimer) (Homo sapiens, UniProt O14920)" category_label="false (0)"
sample_smiles=COC(=O)c1cccc(-n2cc(NC(N)=O)c(C(N)=O)n2)c1 study_target="human IKK-2 (rhIKK-2 homodimer) (Homo sapiens, UniProt O14920)" category_label="false (0)"
sample_smiles=COc1ccc(-c2cccc(-n3cc(NC(N)=O)c(C(N)=O)n3)c2)cc1OC study_target="human IKK-2 (rhIKK-2 homodimer) (Homo sapiens, UniProt O14920)" category_label="false (0)"
sample_smiles=NC(=O)Nc1cn(-c2ccc(Sc3ccncc3)cc2)nc1C(N)=O study_target="human IKK-2 (rhIKK-2 homodimer) (Homo sapiens, UniProt O14920)" category_label="true (1)"

Challenge: Hello, is IC50 of the following compound strictly smaller than 0.3 µM? `CNC(=O)Nc1cn(-c2ccc(I)cc2)nc1C(N)=O`
Response given: false (0)

###

- Study Target: human IKK-2 (rhIKK-2 homodimer) (Homo sapiens)
- Construct: FLAG (DYKDDDDKD) (C); made in house; host or cells: insect cells (baculovirus, pFastBac)
- Experimental Protocol: IKK-2 Resin Enzyme Assay (Human IKK-2 Enzyme Assay)
- Format: biochemical
- Details: human IKK-2, resin enzyme assay; read-out: IC50 (μM) hIKK-2
Binarize IC50 at 0.7 µM; below is satisfied, at or above is not satisfied.

Solved entries (count: 3):
compound=NC(=O)Nc1cn(-c2ccc(-c3ccccc3O)cc2)nc1C(N)=O category_label="not satisfied"
compound=NC(=O)Nc1cn(-c2ccc(S(=O)(=O)c3cccc(F)c3)cc2)nc1C(N)=O category_label=satisfied
compound=NC(=O)Nc1cn(-c2ccc(-c3ccccc3O)c(Cl)c2)nc1C(N)=O category_label="not satisfied"

Query compound follows.
Challenge: In plain terms, does `CS(=O)(=O)c1ccc(-c2cccc(-n3cc(NC(N)=O)c(C(N)=O)n3)c2)cc1` come in under 0.7 µM for IC50?
Response given: satisfied

###

- Study Target: human IKK-2 (rhIKK-2 homodimer) (Homo sapiens)
- Construct: FLAG (DYKDDDDKD) (C); made in house; host or cells: insect cells (baculovirus, pFastBac)
- Sequence (O14920 1-756): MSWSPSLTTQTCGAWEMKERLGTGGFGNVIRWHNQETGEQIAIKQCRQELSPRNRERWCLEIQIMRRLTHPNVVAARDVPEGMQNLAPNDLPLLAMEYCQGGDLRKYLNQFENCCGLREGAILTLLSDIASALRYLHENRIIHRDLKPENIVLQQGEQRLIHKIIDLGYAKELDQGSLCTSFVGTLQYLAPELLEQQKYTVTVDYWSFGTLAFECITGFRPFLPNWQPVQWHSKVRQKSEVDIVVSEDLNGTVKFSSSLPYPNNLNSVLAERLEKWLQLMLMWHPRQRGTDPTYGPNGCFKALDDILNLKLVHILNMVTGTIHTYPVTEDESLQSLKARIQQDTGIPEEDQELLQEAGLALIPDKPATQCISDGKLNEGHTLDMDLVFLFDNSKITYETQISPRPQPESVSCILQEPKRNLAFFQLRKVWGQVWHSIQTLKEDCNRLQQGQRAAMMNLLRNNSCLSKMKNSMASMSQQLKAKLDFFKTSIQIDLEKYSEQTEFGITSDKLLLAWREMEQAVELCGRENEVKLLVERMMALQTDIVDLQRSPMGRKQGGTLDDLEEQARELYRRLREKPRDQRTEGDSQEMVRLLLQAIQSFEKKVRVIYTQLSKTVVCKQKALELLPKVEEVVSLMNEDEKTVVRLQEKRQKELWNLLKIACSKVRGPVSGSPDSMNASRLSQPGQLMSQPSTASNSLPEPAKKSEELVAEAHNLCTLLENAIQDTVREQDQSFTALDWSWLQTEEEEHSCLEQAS
- Experimental Protocol: IKK-2 Resin Enzyme Assay (Human IKK-2 Enzyme Assay)
- Assay type: biochemical
- Details: human IKK-2, resin enzyme assay; read-out: IC50 (μM) hIKK-2
Measure: log10 IC50 (log10 of the value in µM)
log10 IC50, µM

sample_smiles=Cc1cc(-n2cc(NC(N)=O)c(C(N)=O)n2)ccc1-c1ccccc1O measure="log10 IC50" reported=0.31
sample_smiles=NC(=O)Nc1cn(-c2ccc(-c3ccccc3O)c(C(F)(F)F)c2)nc1C(N)=O measure="log10 IC50" reported=0.23
sample_smiles=NC(=O)Nc1cn(-c2ccc(Cl)cc2)nc1C(N)=O measure="log10 IC50" reported=-0.42
sample_smiles=NC(=O)Nc1cn(-c2ccc(-c3ccccc3F)cc2)nc1C(N)=O measure="log10 IC50" reported=0.48
sample_smiles=Cc1cc(-n2cc(NC(N)=O)c(C(N)=O)n2)ccc1-c1cccc(OCC#N)c1 measure="log10 IC50" reported=0.91

Challenge: Which log10 IC50 reading was recorded for the compound `COc1ccc(CNC(=O)CCc2cccc(-c3ccc(-n4cc(NC(N)=O)c(C(N)=O)n4)cc3)c2)c(OC)c1` ?
Response given: 0.19

Challenge: Which log10 IC50 is reported for this compound? `NC(=O)Nc1nn(-c2ccc(-c3ccc(F)c(F)c3)cc2)cc1C(N)=O`
Response given: 0.50

Challenge: // query log10 IC50 value for entry `NC(=O)Nc1cn(-c2cccc(-c3ccccc3OCc3ccccc3)c2)nc1C(N)=O`
Response given: 0.77

Challenge: Report log10 IC50 for `NC(=O)Nc1cn(-c2ccc(-c3ccc(C(=O)NCc4cccc(F)c4)c(F)c3)cc2)nc1C(N)=O` please.
Response given: -0.21

Challenge: Given the compound `NC(=O)Nc1cn(-c2ccc(-c3ccc(C(=O)OCc4ccc(F)cc4)c(F)c3)cc2)nc1C(N)=O` , what is its reported log10 IC50?
Response given: 1.05

Challenge: Need log10 IC50 of `CC(C)NC(=O)c1cccc(-c2ccc(-n3cc(NC(N)=O)c(C(N)=O)n3)cc2)c1` , thanks.
Response given: 0.85

Challenge: Return reported log10 IC50; argument: `NC(=O)Nc1cn(-c2ccc(-c3ccc(C(=O)NCc4ccccc4F)c(F)c3)cc2)nc1C(N)=O`
Response given: 0.91

Challenge: Would you kindly share the measured log10 IC50 for `N#CCOc1cccc(-c2ccc(-n3cc(NC(N)=O)c(C(N)=O)n3)c(F)c2)c1` ?
Response given: -0.29

Challenge: // lookup log10 IC50 for `CCOc1ccc(-c2cccc(-n3cc(NC(N)=O)c(C(N)=O)n3)c2)cc1`
Response given: 0.79

Challenge: Give the measured log10 IC50 of `CCNC(=O)COc1ccc(F)cc1-c1ccc(-n2cc(NC(N)=O)c(C(N)=O)n2)cc1` .
Response given: 0.13

Challenge: Any idea what log10 IC50 was measured for `NC(=O)Nc1cn(-c2ccc(S(=O)(=O)c3ccccc3O)cc2)nc1C(N)=O` ?
Response given: -0.60

Challenge: Entry `Cc1cc(-n2cc(NC(N)=O)c(C(N)=O)n2)ccc1Cl` has what log10 IC50?
Response given: -0.64
